System: HT29
protocol.description: Combination screen CRC cell lines (CellTiter-Glo)
Format: cell-based
run.conditions: DR5 ab + Fc titrated in combination with 1x IC50 of the named compound, 3 days, read-out: IC50 combo
Procedure: A panel of CRC and PDAC cell lines was assessed and combination partners of potential clinical relevance for the respective tumor indications were used for evaluation of combination effects (CRC: irinotecan, oxaliplatin, 5-FU, MDM2 inhibitor (RG7388), Bcl-2 inhibitor (ABT199); PDAC: Abraxane, Paclitaxel, Gemcitabine, Doxorubicin, MDM2i (RG7388), Bc12i (ABT199), Bortezomib, Cyclopamine, PARP inhibitor (PJ34)). […]

| chem.smiles | measured.target | IC50 (nM) |
| --- | --- | --- |
| O=C1[O][Pt]2([NH][C@@H]3CCCC[C@H]3[NH]2)[O]C1=O | HT29 | 0.2 |

====

Tested on: HT29
protocol.description: Combination screen CRC cell lines (CellTiter-Glo)
Type: cell-based
run.conditions: agent alone, 3 days, read-out: IC50 monotherapy

| chem.smiles | measured.target | quantity.unit | IC50 |
| --- | --- | --- | --- |
| O=C1[O][Pt]2([NH][C@@H]3CCCC[C@H]3[NH]2)[O]C1=O | HT29 | µM | 5 |

====

Test system: Bxpc3
protocol.description: Combination screen PDAC cell lines (CellTiter-Glo)
Type: cell-based
run.conditions: Bxpc3; first figure of mono/combo
Reported % max. inhibition (mono) values are given for each entry in this list.

| chem.smiles | measured.target | % max. inhibition (mono) |
| --- | --- | --- |
| Nc1ccn([C@@H]2O[C@H](CO)[C@@H](O)C2(F)F)c(=O)n1 | Bxpc3 | 45% |
| CC(C)C[C@H](NC(=O)[C@H](Cc1ccccc1)NC(=O)c1cnccn1)B(O)O | Bxpc3 | 60% |
| CC(=O)O[C@H]1C(=O)[C@@]2(C)[C@H]([C@H](OC(=O)c3ccccc3)[C@]3(O)C[C@H](OC(=O)[C@H](O)[C@@H](NC(=O)c4ccccc4)c4ccccc4)C(C)=C1C3(C)C)[C@]1(OC(C)=O)CO[C@@H]1C[C@@H]2O | Bxpc3 | 80% |
| COc1cccc2c1C(=O)c1c(O)c3c(c(O)c1C2=O)C[C@@](O)(C(=O)CO)C[C@@H]3O[C@H]1C[C@H](N)[C@H](O)[C@H](C)O1 | Bxpc3 | 25% |

====

System: SW480
protocol.description: Combination screen CRC cell lines (CellTiter-Glo)
Assay type: cell-based
run.conditions: n.s. = not significant
measured.attribute: Fold change IC50 (DR5 ab mono vs combo)

| compound | result |
| --- | --- |
| CC1(C)CCC(CN2CCN(c3ccc(C(=O)NS(=O)(=O)c4ccc(NCC5CCOCC5)c([N+](=O)[O-])c4)c(Oc4cnc5[nH]ccc5c4)c3)CC2)=C(c2ccc(Cl)cc2)C1 [Bcl2i (ABT199)] | n.s. |
| CCc1c2c(nc3ccc(OC(=O)N4CCC(N5CCCCC5)CC4)cc13)-c1cc3c(c(=O)n1C2)COC(=O)[C@]3(O)CC [Irinotecan] | n.s. |
| O=c1[nH]cc(F)c(=O)[nH]1 [5-FU, 5-Fluoro-1H,3H-pyrimidine-2,4-dione] | 70000 |
| O=C1[O][Pt]2([NH][C@@H]3CCCC[C@H]3[NH]2)[O]C1=O [Oxaliplatin] | n.s. |
